- assay remarks: chemical genetic growth profiling, strain panel (AID 1159580);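 note: tested at 20 µM; growth read once vehicle control cultures reached saturation at 30 °C; 1 = growth at the plate median or of vehicle wells; lower values mean less growth of the strain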
- condition summary: S. cerevisiae deletion strains, growth OD, locus YIL125W, strain kgd1, hits give low values
Screen size: about 5,500 compounds; about 2,000 (36%) were called active. Not shown: some 18% with an inconclusive outcome. This is one part of the list.
Can you tell me normalized growth for the items I'm about to list?
The reply should be a number, written without any unit.

Param item = CNC(C)[C@@H]1CC[C@@H](N)[C@@H](OC2[C@@H](N)C[C@@H](N)[C@H](OC3OC[C@](C)(O)[C@H](NC)[C@H]3O)[C@H]2O)O1 (stereo not given in full) ; retrieve measured normalized growth.
1.02

Param item = O=C(c1ccccc1)c1ccc2n1CCC2C(=O)O (stereo not given) ; retrieve measured normalized growth.
0.985

Param item = CCCC(=O)Nc1ccc(OCC(O)CNC(C)C)c(C(C)=O)c1 (stereo not given) ; retrieve measured normalized growth.
1.01

Param item = CC(C)[C@@H]1CC[C@@H](C)CC1=O ; retrieve measured normalized growth.
1.02

Param item = COc1cc2c(cc1OC)C(C)NCC2 (stereo not given) ; retrieve measured normalized growth.
0.981

---

- assay remarks: chemical genetic growth profiling, strain panel (AID 1159580)
- condition summary: S. cerevisiae deletion strains, growth OD, locus YDR137W, strain rgp1, hits give low values
Among all 5,500 compounds or so, about 2,000 (36%) were called active. About 18% were inconclusive and are not listed. Some of the results follow.
outcome measure: normalized growth
The reply should be a number, written without any unit.

Param item = CC(=O)NS(=O)(=O)c1ccc(N)cc1 ; retrieve measured normalized growth.
0.997

Param item = Cc1cc(O)c2c(c1)C(=O)c1cccc(O)c1C2=O ; retrieve measured normalized growth.
0.791

Param item = COc1ccc([C@@H](C)C(=O)c2ccc(O)cc2O)cc1 ; retrieve measured normalized growth.
0.797

Param item = O=C1C=CC(=O)c2c(O)c(Cl)c(Cl)c(O)c21 ; retrieve measured normalized growth.
0.816

Param item = CC(=O)c1ccc[nH]1 ; retrieve measured normalized growth.
0.98

Param item = C[N+]12CCC(CC1)C(OC(=O)C(O)(c1ccccc1)c1ccccc1)C2 (stereo unspecified) ; retrieve measured normalized growth.
0.975

---

Can you tell me normalized growth for the items I'm about to list?
- assay remarks: chemical genetic growth profiling, strain panel (AID 1159580);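 note: tested at 20 µM; growth read once vehicle control cultures reached saturation at 30 °C; 1 = growth at the plate median or of vehicle wells; lower values mean less growth of the strain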
- condition summary: S. cerevisiae deletion strains, growth OD, locus YLR320W, strain mms22, hits give low values
The campaign covered roughly 5,500 compounds. About 2,000 (36%) were called active. Roughly 18% stayed inconclusive and do not appear here. The list shows a part of the results.
The reply should be a number, written without any unit.

Param item = Cn1c(=O)c2c(ncn2C)n(C)c1=O ; retrieve measured normalized growth.
0.987

Param item = Cn1c(=O)[nH]c2nc[nH]c2c1=O ; retrieve measured normalized growth.
1

Param item = Cn1cnc2c1c(=O)[nH]c(=O)n2C ; retrieve measured normalized growth.
1

Param item = CC1(C)CC23C(=O)CCC(O)C2(C)CCC13 (stereo not drawn) ; retrieve measured normalized growth.
0.997

Param item = O=C(N[C@@H](CO)[C@H](O)c1ccc([N+](=O)[O-])cc1)C(Cl)Cl ; retrieve measured normalized growth.
1

Param item = CCCCN(CC)c1c([N+](=O)[O-])cc(C(F)(F)F)cc1[N+](=O)[O-] ; retrieve measured normalized growth.
1.02

Param item = CCCN(CCC)c1c([N+](=O)[O-])cc(C(F)(F)F)cc1[N+](=O)[O-] ; retrieve measured normalized growth.
1.01

Param item = O=C(/C=C/c1ccc(O)cc1)c1ccc(O)cc1O ; retrieve measured normalized growth.
1.01

---

- assay remarks: chemical genetic growth profiling, strain panel (AID 1159580);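 note: tested at 20 µM; growth read once vehicle control cultures reached saturation at 30 °C; 1 = growth at the plate median or of vehicle wells; lower values mean less growth of the strain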
- condition summary: S. cerevisiae deletion strains, growth OD, locus YNL307C, strain MCK1
The whole screen tested about 5,500 compounds, of which about 2,000 (36%) were called active. About 18% were inconclusive and are not listed. No stated cut-off is given here; in the data, active means normalized growth mostly below about 0.91 (no sharp cut-off); inconclusive means no clear call, values can overlap the other calls; inactive means mostly above about 0.92. The list shows a part of the results.
Parameter call: string, one of active, inactive

GET /call?item= COc1ccc(NS(=O)(=O)c2ccc(N)cc2)nn1 returns the recorded outcome of this test.
inactive

GET /call?item= CC1(C)CC23C(=O)CCC(O)C2(C)CCC13 (stereo not given) returns the recorded outcome of this test.
inactive

GET /call?item= CC(=O)CCCCn1c(=O)c2c(ncn2C)n(C)c1=O returns the recorded outcome of this test.
inactive

GET /call?item= CC(C)Cn1c(=O)n(C)c(=O)c2[nH]cnc21 returns the recorded outcome of this test.
inactive

GET /call?item= C[C@H]1C(=O)CCC2[C@]3(C)CC[C@@]4(C)C5CC(C)(C)CC[C@]5(C)CC[C@]4(C)C3CC[C@@]21C (stereo not given in full) returns the recorded outcome of this test.
inactive

GET /call?item= Cn1cnc2c1c(=O)[nH]c(=O)n2C returns the recorded outcome of this test.
inactive

GET /call?item= COc1cc2cccc(OC)c(=O)c2c(OC)c1OC returns the recorded outcome of this test.
inactive

GET /call?item= C/C(=C\CO)CC[C@H](C)CCC[C@H](C)CCCC(C)C returns the recorded outcome of this test.
active

GET /call?item= C[N+]1(C)CCCC(OC(=O)C(O)(c2ccccc2)c2ccccc2)C1 (stereo not given) returns the recorded outcome of this test.
inactive

GET /call?item= COc1cc(O)c2c(c1)C(=O)c1cc(C)cc(O)c1C2=O returns the recorded outcome of this test.
active

GET /call?item= CNC(=O)Oc1ccccc1OC(C)C returns the recorded outcome of this test.
inactive

GET /call?item= O=C(Nc1ccc([N+](=O)[O-])cc1Cl)c1cc(Cl)ccc1O returns the recorded outcome of this test.
inactive

GET /call?item= Cn1c(=O)[nH]c2ncn(C)c2c1=O returns the recorded outcome of this test.
inactive

GET /call?item= CN1C(=O)CC[C@H]1c1cccnc1 returns the recorded outcome of this test.
inactive

GET /call?item= CC(=O)OC1CCC2(O)CC1(C)CCC1C2CC1(C)C (stereo not given) returns the recorded outcome of this test.
inactive

GET /call?item= COc1cc(Cc2cnc(N)nc2N)cc(OC)c1OC returns the recorded outcome of this test.
inactive

GET /call?item= Cc1ccc(O)c(C(CCN(C(C)C)C(C)C)c2ccccc2)c1 (stereo not given) returns the recorded outcome of this test.
inactive

GET /call?item= O=C(O)c1cccnc1C(=O)O returns the recorded outcome of this test.
inactive

GET /call?item= CN1CCCCC1c1ccc(-c2cccnc2)nc1 (stereo not given) returns the recorded outcome of this test.
inactive

GET /call?item= O=c1c(O)c(-c2ccccc2)oc2ccccc12 returns the recorded outcome of this test.
inactive

GET /call?item= CCCC(=O)Nc1ccc(OCC(O)CNC(C)C)c(C(C)=O)c1 (stereo not given) returns the recorded outcome of this test.
inactive

GET /call?item= Oc1cccc2cccnc12 returns the recorded outcome of this test.
active

GET /call?item= CON returns the recorded outcome of this test.
inactive

GET /call?item= O=C(c1ccccc1)c1ccc2n1CCC2C(=O)O (stereo not given) returns the recorded outcome of this test.
inactive

GET /call?item= Cn1c(=O)[nH]c2nc[nH]c2c1=O returns the recorded outcome of this test.
inactive

---

- assay remarks: chemical genetic growth profiling, strain panel (AID 1159580);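 note: tested at 20 µM; growth read once vehicle control cultures reached saturation at 30 °C; 1 = growth at the plate median or of vehicle wells; lower values mean less growth of the strain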
- condition summary: S. cerevisiae deletion strains, growth OD, locus YPR025C, strain CCL1, hits give low values
In all, about 5,500 compounds went through this assay and about 2,000 (36%) were called active. About 18% were inconclusive and are not listed. The list shows a part of the results.
Can you tell me normalized growth for the items I'm about to list?
The reply should be a number, written without any unit.

Param item = O=C(Nc1cc(Cl)cc(Cl)c1)c1cc(Cl)ccc1O ; retrieve measured normalized growth.
0.936

Param item = COC(=O)c1cc(I)c(OC(C)=O)c(I)c1 ; retrieve measured normalized growth.
0.953

Param item = Cc1ccc2nc3c(nc2c1)-c1ccccc1C3=O ; retrieve measured normalized growth.
0.929

Param item = CC(=O)c1ccc(Sc2ccccc2)c([N+](=O)[O-])c1 ; retrieve measured normalized growth.
0.884

Param item = N#CC(C(=O)Nc1cccc(C(F)(F)F)c1)C(=S)Nc1ccccc1Cl (configuration not stated) ; retrieve measured normalized growth.
0.993

Param item = O=C(Nc1ccc(F)cc1)c1cc(Br)ccc1O ; retrieve measured normalized growth.
0.907

Param item = CC(C)Sc1c(Cl)cccc1NC(=O)Nc1cccc(C(F)(F)F)c1 ; retrieve measured normalized growth.
0.979

Param item = O=C(Nc1ccccc1Sc1ccc(C(F)(F)F)cc1[N+](=O)[O-])C(Cl)Cl ; retrieve measured normalized growth.
0.997

Param item = CCOC(=O)c1ccc(N=Cc2cc(Cl)cc(Cl)c2O)cc1 ; retrieve measured normalized growth.
0.948

Param item = O=S(=O)(Nc1c(F)cccc1F)c1ccc(Cl)c(Cl)c1 ; retrieve measured normalized growth.
0.934

Param item = COc1cc(C2CC(=S)Nc3ccccc3S2)cc(OC)c1OC (configuration not stated) ; retrieve measured normalized growth.
0.994

Param item = CC1SC(c2cccnc2)N(c2ccc(F)cc2F)C1=O (configuration not stated) ; retrieve measured normalized growth.
0.984

src = PubChem BioAssay AID1159580
